MEASUREMENT PROTOCOL: Cytotoxicity Huh-7 cells (MTS/PMS)
Type: cell-based
PARTICULARS: human, 3-day incubation
Procedure: Cytotoxicity of compounds for use in treating hyperproliferative diseases or disorders was tested in Huh-7 cells using tetrazolium salt MTS combined with the electron acceptor PMS in a 96-well format. […] After about a one to four hour incubation of MTS/PMS at 37° C. and 5% CO2—that is, until an OD490 absorbance of ≧0.6 for the wells containing cells with media only, the level of cytotoxicity at each concentration was calculated. […]
Reported CC50 at 3 days is given for each of the following molecules.
Reply numerically in µM, unit not repeated.

Illustrative cases are given below, each with its answer.
- MOLECULE: "NCCCC[C@H](NC(=O)OCC1c2ccccc2-c2ccccc21)C(=O)Nc1ccc(CN)cc1 [Compound 228]"
  UNIT SPEC: "µM"
  RECORDED VALUE: 36.7
- MOLECULE: "COC(=O)c1ccc(COc2ccc(NC(=O)N[C@@H](CCCCN)C(=O)Nc3ccc(C)cc3)cc2)cc1 [Compound 199]"
  UNIT SPEC: "µM"
  RECORDED VALUE: 53

Now consider a different molecule.
Item under review: Cc1ccc(NC(=O)[C@H](CCCCN)NC(=O)CNc2ccc(Oc3ccccc3)cc2)cc1 [Compound 368] . Reported CC50 at 3 days?
58

---

Tested on: Jurkat
MEASUREMENT PROTOCOL: Cell viability by XTT
PARTICULARS: read-out: Activity (TC50), six concentration dose response, Table 9
MEASURE NAME: CC50 (µM)
I only need the number, in µM, no unit after it.

Value lookup for CC50; key = Cc1ccc(NC(=O)[C@H](CCCCN)NCc2ccc(NC(=O)Nc3ccncc3)cc2)cc1
5.5

---

EXPERIMENTAL SYSTEM: Calf polymerase alpha (Bos taurus, UniProt A0AAA9TD94)
Sequence (A0AAA9TD94 1-1441): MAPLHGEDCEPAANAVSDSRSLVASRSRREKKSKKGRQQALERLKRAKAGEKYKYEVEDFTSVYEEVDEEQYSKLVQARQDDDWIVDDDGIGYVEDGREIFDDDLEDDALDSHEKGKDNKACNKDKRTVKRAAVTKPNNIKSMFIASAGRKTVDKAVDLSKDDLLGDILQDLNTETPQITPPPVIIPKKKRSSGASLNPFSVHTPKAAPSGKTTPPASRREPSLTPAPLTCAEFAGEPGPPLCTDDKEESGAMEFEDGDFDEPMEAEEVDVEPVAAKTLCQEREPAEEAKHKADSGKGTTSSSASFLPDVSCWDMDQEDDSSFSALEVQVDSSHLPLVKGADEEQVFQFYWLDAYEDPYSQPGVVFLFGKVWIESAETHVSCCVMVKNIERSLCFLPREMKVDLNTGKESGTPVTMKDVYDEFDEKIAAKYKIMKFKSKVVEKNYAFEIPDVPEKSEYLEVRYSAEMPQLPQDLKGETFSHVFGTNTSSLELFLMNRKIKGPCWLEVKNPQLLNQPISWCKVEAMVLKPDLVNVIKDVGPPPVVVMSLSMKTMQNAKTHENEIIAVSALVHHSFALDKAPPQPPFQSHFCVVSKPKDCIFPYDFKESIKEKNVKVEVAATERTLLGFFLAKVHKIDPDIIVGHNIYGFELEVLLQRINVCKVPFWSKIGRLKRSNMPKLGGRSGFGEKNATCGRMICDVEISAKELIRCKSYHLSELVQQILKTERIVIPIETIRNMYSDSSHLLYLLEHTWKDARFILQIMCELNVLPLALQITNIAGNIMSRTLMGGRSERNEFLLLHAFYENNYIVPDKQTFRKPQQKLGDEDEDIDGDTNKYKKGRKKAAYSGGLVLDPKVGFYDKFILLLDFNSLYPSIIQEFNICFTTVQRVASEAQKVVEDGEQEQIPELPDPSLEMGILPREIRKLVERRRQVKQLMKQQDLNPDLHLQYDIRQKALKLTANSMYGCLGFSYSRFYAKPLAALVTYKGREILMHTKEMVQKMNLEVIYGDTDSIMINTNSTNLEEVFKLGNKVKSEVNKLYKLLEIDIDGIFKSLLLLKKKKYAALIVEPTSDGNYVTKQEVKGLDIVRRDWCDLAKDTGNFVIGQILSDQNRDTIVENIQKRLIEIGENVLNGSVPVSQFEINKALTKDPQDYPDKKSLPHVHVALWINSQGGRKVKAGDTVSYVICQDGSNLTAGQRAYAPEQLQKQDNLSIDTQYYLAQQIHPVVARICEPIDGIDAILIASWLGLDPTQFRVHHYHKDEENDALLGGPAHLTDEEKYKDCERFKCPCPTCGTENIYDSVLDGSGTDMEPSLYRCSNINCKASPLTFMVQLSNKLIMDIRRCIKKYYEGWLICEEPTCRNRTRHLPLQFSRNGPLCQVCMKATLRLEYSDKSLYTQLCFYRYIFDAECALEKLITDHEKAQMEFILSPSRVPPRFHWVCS
MEASURE NAME: pIC50
In plain terms, pIC50 is the concentration in mol/L turned into minus its base-10 logarithm.

State the recorded pIC50 for this entry: NCCCCN(CC(=O)Nc1cccc2[nH]ccc12)C(=O)Nc1ccc(OCc2ccccc2)cc1
5.04

Can you check Cc1ccc(NC(=O)[C@@H](CCCCN)NC(=O)Nc2ccc(OCc3ccccc3)cc2)cc1 next?
5.14

// same read-out, input: COC(=O)c1ccc(COc2ccc(NC(=O)N[C@@H](CCCCN)C(=O)Nc3ccc(C)cc3)cc2)cc1
5.10

Same thing, different compound: Cc1ccc(NC(=O)[C@H](CCCCN)NC(=O)Nc2ccc(OCc3ccccc3)cc2)cc1
4.89
